Tested on: Helminthosporium
experimentSummary: Antifungal activity against Helminthosporium sp. at 200 ug/ml after 7 days by poisoned food technique relative to control
Assay type: functional
readoutType: Activity

{"recordSmiles": "COc1ccc(-c2cc(C)nn2-c2cc3nc(C)cc(-c4ccc(OC)cc4)n3n2)cc1", "valueMeasured": "62.2%"}
{"recordSmiles": "Cc1cc(-c2ccccc2)n2nc(-n3nc(C)cc3-c3ccccc3)cc2n1", "valueMeasured": "0%"}
{"recordSmiles": "Cc1cc(-c2ccc(Cl)cc2)n2nc(-n3nc(C)cc3-c3ccc(Cl)cc3)cc2n1", "valueMeasured": "36.6%"}
{"recordSmiles": "Cc1cc(C)n2nc(-n3nc(C)cc3C)cc2n1", "valueMeasured": "79.2%"}

---

Reported Activity values are given for each entry in this list.
Tested on: Helminthosporium
experimentSummary: Antifungal activity against Helminthosporium sp. at 100 ug/ml after 7 days by poisoned food technique relative to control
Type: functional

{"recordSmiles": "Cc1cc(-c2ccccc2)n2nc(-n3nc(C)cc3-c3ccccc3)cc2n1", "unitAbbreviation": "%", "Activity": 0}
{"recordSmiles": "Cc1cc(-c2ccc(Cl)cc2)n2nc(-n3nc(C)cc3-c3ccc(Cl)cc3)cc2n1", "unitAbbreviation": "%", "Activity": 17.7}
{"recordSmiles": "Cc1cc(C)n2nc(-n3nc(C)cc3C)cc2n1", "unitAbbreviation": "%", "Activity": 79.2}
{"recordSmiles": "COc1ccc(-c2cc(C)nn2-c2cc3nc(C)cc(-c4ccc(OC)cc4)n3n2)cc1", "unitAbbreviation": "%", "Activity": 27.7}

---

Tested on: Escherichia coli
experimentSummary: Antibacterial activity against Escherichia coli ATCC 8739 at 2 mg/ml after 24 hrs by agar-well diffusion technique
Assay type: functional
measurementConditions: ATCC 8739, 24 h, read-out: DIZ
Reported zone of inhibition at 2000 µg/mL values are given for each entry in this list.

{"recordSmiles": "Cc1ccc(-c2cc(C)nn2-c2cc3nc(C)cc(-c4ccc(C)cc4)n3n2)cc1", "targetEntity": "Escherichia coli", "zone of inhibition at 2000 µg/mL / mm": 10.5}
{"recordSmiles": "Cc1cc(-c2ccc(Cl)cc2)n2nc(-n3nc(C)cc3-c3ccc(Cl)cc3)cc2n1", "targetEntity": "Escherichia coli", "zone of inhibition at 2000 µg/mL / mm": 13}
{"recordSmiles": "Cc1cc(-c2cccs2)n2nc(-n3nc(C)cc3-c3cccs3)cc2n1", "targetEntity": "Escherichia coli", "zone of inhibition at 2000 µg/mL / mm": 8}
{"recordSmiles": "COc1ccc(-c2cc(C)nn2-c2cc3nc(C)cc(-c4ccc(OC)cc4)n3n2)cc1", "targetEntity": "Escherichia coli", "zone of inhibition at 2000 µg/mL / mm": 8}
{"recordSmiles": "Cc1cc(C)n2nc(-n3nc(C)cc3C)cc2n1", "targetEntity": "Escherichia coli", "zone of inhibition at 2000 µg/mL / mm": 7}

---

Tested on: Fusarium oxysporum
experimentSummary: Antifungal activity against Fusarium oxysporum at 10 ug/ml after 7 days by poisoned food technique relative to control
Format: functional

{"recordSmiles": "COc1ccc(-c2cc(C)nn2-c2cc3nc(C)cc(-c4ccc(OC)cc4)n3n2)cc1", "Activity [%]": 6.55}
{"recordSmiles": "Cc1cc(-c2ccccc2)n2nc(-n3nc(C)cc3-c3ccccc3)cc2n1", "Activity [%]": 8.53}
{"recordSmiles": "Cc1cc(-c2ccc(Cl)cc2)n2nc(-n3nc(C)cc3-c3ccc(Cl)cc3)cc2n1", "Activity [%]": 1.63}

The values you see were collected from ChEMBL document CHEMBL1806357.
